target_entity: Macrophage-stimulating protein receptor (Homo sapiens) (UniProt Q04912)
Sequence (Q04912 25-304 limits assumed): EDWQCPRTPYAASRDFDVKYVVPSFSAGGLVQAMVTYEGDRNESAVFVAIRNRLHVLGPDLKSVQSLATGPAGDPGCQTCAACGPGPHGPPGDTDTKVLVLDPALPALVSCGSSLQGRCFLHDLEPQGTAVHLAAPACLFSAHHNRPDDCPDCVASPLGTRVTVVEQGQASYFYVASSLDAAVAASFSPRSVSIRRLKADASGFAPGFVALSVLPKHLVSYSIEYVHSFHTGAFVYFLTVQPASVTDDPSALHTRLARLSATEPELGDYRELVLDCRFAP
Sequence (Q04912 310-1400 limits assumed): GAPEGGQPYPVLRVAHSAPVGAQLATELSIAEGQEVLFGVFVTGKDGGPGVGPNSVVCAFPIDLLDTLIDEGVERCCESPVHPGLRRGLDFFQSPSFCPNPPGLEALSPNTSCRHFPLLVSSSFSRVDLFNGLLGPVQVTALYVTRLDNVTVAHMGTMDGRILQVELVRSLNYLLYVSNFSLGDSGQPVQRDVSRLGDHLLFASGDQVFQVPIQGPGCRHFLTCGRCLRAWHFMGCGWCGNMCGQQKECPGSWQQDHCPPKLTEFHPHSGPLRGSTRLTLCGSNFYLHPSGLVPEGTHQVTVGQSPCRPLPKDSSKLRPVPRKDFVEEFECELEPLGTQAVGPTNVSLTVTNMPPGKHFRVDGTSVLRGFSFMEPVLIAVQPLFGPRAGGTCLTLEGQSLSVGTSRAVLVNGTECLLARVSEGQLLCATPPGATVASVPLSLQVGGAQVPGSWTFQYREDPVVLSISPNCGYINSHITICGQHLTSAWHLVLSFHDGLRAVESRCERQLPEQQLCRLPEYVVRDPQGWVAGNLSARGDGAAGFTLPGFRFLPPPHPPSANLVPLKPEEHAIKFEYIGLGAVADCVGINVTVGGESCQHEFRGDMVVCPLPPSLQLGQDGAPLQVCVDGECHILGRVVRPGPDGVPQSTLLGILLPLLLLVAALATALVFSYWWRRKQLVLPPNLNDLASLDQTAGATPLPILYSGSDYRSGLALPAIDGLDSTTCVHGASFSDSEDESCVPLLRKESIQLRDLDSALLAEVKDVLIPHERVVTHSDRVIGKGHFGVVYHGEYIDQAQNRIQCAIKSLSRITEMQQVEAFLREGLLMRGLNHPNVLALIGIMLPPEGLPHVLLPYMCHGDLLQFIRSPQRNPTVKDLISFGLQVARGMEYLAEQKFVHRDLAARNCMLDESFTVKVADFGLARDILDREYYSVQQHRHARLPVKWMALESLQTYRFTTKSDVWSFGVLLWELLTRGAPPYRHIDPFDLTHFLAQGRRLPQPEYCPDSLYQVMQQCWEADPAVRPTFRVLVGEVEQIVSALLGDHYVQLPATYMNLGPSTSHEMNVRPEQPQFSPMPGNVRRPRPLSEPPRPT
condition_info: at 1 µM
Description: GSK_PKIS: RON mean inhibition at 1 uM [Nanosyn]
Listing of entries alongside the reported inhibition.
Give your result in % as a bare value.

Solved entries (count: 5):
mol: O=S(=O)(CCNCc1ccc(-c2ccc3ncnc(Nc4ccc(OCc5cccc(F)c5)c(Cl)c4)c3c2)o1)c1ccccc1
inhibition (%): 2.9
//
mol: CCc1nn2ncccc2c1-c1ccnc(NC2CC2)n1
inhibition (%): 6.01
//
mol: CC(=O)NCc1cccc(C#Cc2cncnc2Nc2ccc(OCc3cccc(F)c3)c(Cl)c2)c1
inhibition (%): 5.62
//
mol: CS(=O)(=O)CCNCc1ccc(-c2ccc3ncnc(Nc4ccc(OCc5ccccc5)c(C(F)(F)F)c4)c3c2)o1
inhibition (%): -4.8
//
mol: Fc1ccc(-c2nn3ncccc3c2-c2ccnc(Nc3ccc4c(c3)OCCO4)n2)cc1
inhibition (%): 4.64

For the molecule shown here, CC(=O)Nc1cccc(C#Cc2cncnc2Nc2ccc(OCc3cccc(F)c3)c(Cl)c2)c1 , give the reported inhibition.
4.22

For the molecule shown here, CN(C)CCOc1ccc(-c2nc(-c3ccncc3)c(-c3ccc4c(c3)CC/C4=N\O)[nH]2)cc1 , give the reported inhibition.
7.41

For the molecule shown here, O=C(O[C@H]1CN[C@H](C#Cc2cc3ncnc(Nc4ccc(Cc5ccccc5)cc4)c3s2)C1)N1CCOCC1 , give the reported inhibition.
3.27

For the molecule shown here, [O-][S+]1CCN(Cc2ccc(-c3ccc4ncnc(Nc5ccc(OCc6cccc(F)c6)c(Cl)c5)c4c3)o2)CC1 , give the reported inhibition.
6.8

###

target_entity: Serine/threonine-protein kinase Nek7 (Homo sapiens) (UniProt Q8TDX7);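 further: figures are averaged percent inhibition of NEK7 kinase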
Sequence (Q8TDX7 whole entry, looked up): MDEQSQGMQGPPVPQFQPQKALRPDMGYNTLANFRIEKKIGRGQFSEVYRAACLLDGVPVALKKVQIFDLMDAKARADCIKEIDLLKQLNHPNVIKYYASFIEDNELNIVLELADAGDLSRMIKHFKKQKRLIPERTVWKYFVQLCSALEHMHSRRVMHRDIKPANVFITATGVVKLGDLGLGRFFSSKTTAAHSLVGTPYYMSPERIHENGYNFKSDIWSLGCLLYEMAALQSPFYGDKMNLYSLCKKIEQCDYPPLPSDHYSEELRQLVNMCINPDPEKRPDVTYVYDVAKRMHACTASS
condition_info: at 0.1 µM
property_measured: inhibition (%)
Give your result in % as a bare value.

Solved entries (count: 2):
mol: O=S(=O)(CCNCc1ccc(-c2ccc3ncnc(Nc4ccc(OCc5cccc(F)c5)c(Cl)c4)c3c2)o1)c1ccccc1
result_unit: %
inhibition: 3.88
//
mol: NC(=O)c1sc(-n2cnc3ccc(C(F)(F)F)cc32)cc1OCc1ccccc1Br
result_unit: %
inhibition: 5.57

Then this compound:
For the compound shown here, O=C(Nc1n[nH]c2cc(-c3ccc(F)cc3)ccc12)C1CC1 , give the reported inhibition.
5.51

###

target_entity: Vascular endothelial growth factor receptor 1 (Homo sapiens) (UniProt P17948);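 further: values are mean percent inhibition of FLT1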
Sequence (P17948 whole entry): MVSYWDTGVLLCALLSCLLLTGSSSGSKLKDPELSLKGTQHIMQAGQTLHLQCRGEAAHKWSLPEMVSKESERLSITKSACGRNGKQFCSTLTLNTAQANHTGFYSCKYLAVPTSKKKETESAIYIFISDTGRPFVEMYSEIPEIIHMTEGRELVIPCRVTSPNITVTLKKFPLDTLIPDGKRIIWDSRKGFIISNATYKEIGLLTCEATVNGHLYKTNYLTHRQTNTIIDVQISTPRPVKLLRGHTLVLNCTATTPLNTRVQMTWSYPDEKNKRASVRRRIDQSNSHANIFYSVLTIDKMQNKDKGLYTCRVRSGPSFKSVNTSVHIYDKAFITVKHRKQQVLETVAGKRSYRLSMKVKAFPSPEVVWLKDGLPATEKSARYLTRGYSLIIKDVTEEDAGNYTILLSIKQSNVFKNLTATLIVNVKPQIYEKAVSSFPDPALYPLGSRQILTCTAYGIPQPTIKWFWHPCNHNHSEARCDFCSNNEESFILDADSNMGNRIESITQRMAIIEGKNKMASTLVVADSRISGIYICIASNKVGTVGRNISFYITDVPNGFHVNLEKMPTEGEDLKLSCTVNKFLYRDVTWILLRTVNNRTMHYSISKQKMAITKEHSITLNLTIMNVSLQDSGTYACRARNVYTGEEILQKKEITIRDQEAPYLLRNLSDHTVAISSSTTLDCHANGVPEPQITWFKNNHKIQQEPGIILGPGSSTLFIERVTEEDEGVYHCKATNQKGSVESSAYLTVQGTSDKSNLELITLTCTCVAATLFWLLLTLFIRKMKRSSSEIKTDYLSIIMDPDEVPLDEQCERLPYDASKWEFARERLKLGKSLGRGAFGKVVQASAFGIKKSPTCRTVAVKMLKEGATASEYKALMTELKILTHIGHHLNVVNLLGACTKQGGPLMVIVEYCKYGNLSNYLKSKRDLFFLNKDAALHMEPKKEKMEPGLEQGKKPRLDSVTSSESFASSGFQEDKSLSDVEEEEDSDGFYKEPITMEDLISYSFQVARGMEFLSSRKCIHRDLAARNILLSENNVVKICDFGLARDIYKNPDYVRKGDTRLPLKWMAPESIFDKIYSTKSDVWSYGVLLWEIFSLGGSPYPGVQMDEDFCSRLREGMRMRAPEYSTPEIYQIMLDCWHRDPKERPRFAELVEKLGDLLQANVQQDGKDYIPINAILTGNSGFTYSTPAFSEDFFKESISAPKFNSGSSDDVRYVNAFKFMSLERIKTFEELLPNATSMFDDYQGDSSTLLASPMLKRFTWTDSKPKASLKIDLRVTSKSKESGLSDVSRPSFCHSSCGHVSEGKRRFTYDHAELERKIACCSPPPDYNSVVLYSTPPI
condition_info: at 0.1 µM
property_measured: inhibition (%)
Give your result in % as a bare value.

mol: NC(=O)c1sc(-n2cnc3ccc(C(F)(F)F)cc32)cc1OCc1ccccc1Br
inhibition / %: 1.4

For the compound shown here, CCn1c(-c2nonc2N)nc2c(C#CC(C)(C)O)nc(OC[C@H](N)c3ccccc3)cc21 , give the reported inhibition.
6.07

For the compound shown here, CCn1c(-c2nonc2N)nc2c(C#CC(C)(C)O)ncc(OC3CCNCC3)c21 , give the reported inhibition.
5.67

For the compound shown here, COc1cccc(-n2ncc3c(N/N=C/c4ccc(F)cc4)ncnc32)c1 , give the reported inhibition.
2.07

For the compound shown here, CCCN(CCS(C)(=O)=O)Cc1ccc(-c2ccc3ncnc(Nc4ccc(OCc5cccc(F)c5)c(Cl)c4)c3c2)o1 , give the reported inhibition.
-1

For the compound shown here, Nc1nc(-c2ccc(F)cc2)c(-c2ccc3ncccc3n2)s1 , give the reported inhibition.
-0.09

For the compound shown here, CS(=O)(=O)CCNCc1coc(-c2ccc3ncnc(Nc4ccc(OCc5ccccc5)cc4)c3c2)c1 , give the reported inhibition.
3.16

For the compound shown here, COc1cc2c(cc1Nc1nc(Nc3ccsc3C(N)=O)c3cc[nH]c3n1)N(C(=O)CN(C)C)CCC2(C)C , give the reported inhibition.
1.44

For the compound shown here, O=S(=O)(CCNCc1ccc(-c2ccc3ncnc(Nc4ccc(OCc5cccc(F)c5)c(Cl)c4)c3c2)o1)c1ccccc1 , give the reported inhibition.
2.06

For the compound shown here, Cc1ccc(O)cc1Nc1ccnc2cc(-c3ccccn3)ccc12 , give the reported inhibition.
82.1

For the compound shown here, Clc1ccc(-c2nn3ncccc3c2-c2ccnc(Nc3ccccc3)n2)cc1 , give the reported inhibition.
4.39

###

target_entity: Tyrosine-protein kinase ABL1 (Homo sapiens);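 further: reported values are mean percent inhibition of ABL1 kinase activity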
condition_info: at 1 µM
property_measured: inhibition (%)
Give your result in % as a bare value.

compound: COc1ccc(CNC(=O)c2ccc(-c3cc(-c4nnc(C)o4)ccc3C)cc2)cc1
property_measured: inhibition
result_unit: %
observed_value: 6.46
--
compound: Fc1ccc(-c2cc(-c3c[nH]nc3-c3ccccn3)ccn2)cc1
property_measured: inhibition
result_unit: %
observed_value: 30.4
--
compound: Clc1ccc(-c2nn3ncccc3c2-c2ccnc(Nc3ccccc3)n2)cc1
property_measured: inhibition
result_unit: %
observed_value: 27.6
--
compound: NC(=O)c1sc(-n2cnc3ccc(C(F)(F)F)cc32)cc1OCc1ccccc1Br
property_measured: inhibition
result_unit: %
observed_value: 4.26
--
compound: CN1CCC(n2cnc(-c3ccc(F)cc3)c2-c2ccnc(N)n2)CC1
property_measured: inhibition
result_unit: %
observed_value: 8.97
--
compound: CCn1c(-c2nonc2N)nc2cnc(Oc3cccc(NC(=O)c4ccc(N(C)C)cc4)c3)cc21
property_measured: inhibition
result_unit: %
observed_value: 3.99
--
compound: CCCN1CCC(c2ccc(Nc3nc(Nc4cc(F)ccc4C(N)=O)c4cc[nH]c4n3)c(OC)c2)CC1
property_measured: inhibition
result_unit: %
observed_value: 8.95
--
compound: COc1ccc(-c2nn3ncccc3c2-c2ccnc(Nc3ccc4c(c3)OCCO4)n2)cc1
property_measured: inhibition
result_unit: %
observed_value: 25.8
--
compound: c1cc(-c2cnn3nc(N4CCOCC4)ccc23)nc(NC2CC2)n1
property_measured: inhibition
result_unit: %
observed_value: 13.7
--
compound: NS(=O)(=O)c1ccc(Nc2ncc(-c3ccccc3)o2)cc1
property_measured: inhibition
result_unit: %
observed_value: 37.9

For the compound shown here, CC1=C(C(=O)Nc2cc(Cl)c3[nH]ncc3c2)C(c2ccc(C(F)(F)F)cc2)CC(=O)N1 (centres undefined) , give the reported inhibition.
1.72

For the compound shown here, O=S(=O)(CCNCc1ccc(-c2ccc3ncnc(Nc4ccc(OCc5cccc(F)c5)c(Cl)c4)c3c2)o1)c1ccccc1 , give the reported inhibition.
10.1

###

target_entity: Glycogen synthase kinase-3 beta (Homo sapiens);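 further: reported values are mean percent inhibition of GSK3B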
condition_info: at 1 µM
Kind request: treat 8% as inclusive, so inhibition at 8% or higher is 1, anything lower is -1.

compound: Fc1cccc(COc2ccc(Nc3ncnc4sc(-c5ccco5)cc34)cc2Cl)c1
assigned_label: -1
//
compound: CNC(=O)c1cc(-c2ccc(F)cc2)cc(-c2ccc(S(=O)(=O)N3CCCC3)cc2)c1N
assigned_label: -1
//
compound: CS(=O)(=O)CCNCc1ccc(-c2ccc3ncnc(Nc4ccc(OCc5ccccc5)c(C(F)(F)F)c4)c3c2)o1
assigned_label: -1
//
compound: N#Cc1c(NC(=O)c2ccc(F)cc2)sc2c1CCCC2
assigned_label: -1

Evaluate COc1cc2c(cc1Nc1nc(Nc3ccsc3C(N)=O)c3cc[nH]c3n1)N(C(=O)CN(C)C)CCC2(C)C : inhibition at minimum 8%?
1

Evaluate CC1=C(C(=O)Nc2cc(Cl)c3[nH]ncc3c2)C(c2ccc(C(F)(F)F)cc2)CC(=O)N1 (stereo not given) : inhibition at minimum 8%?
-1

###

Listing of entries alongside the reported inhibition.
target_entity: Serine/threonine-protein kinase Chk2 (Homo sapiens)
condition_info: at 0.1 µM
Description: GSK_PKIS: CHEK2 mean inhibition at 0.1 uM [Nanosyn]
Give your result in % as a bare value.

Solved entries (count: 2):
mol: CCN(CC)S(=O)(=O)c1ccc(OC)c(Nc2ncc(-c3ccccc3)o2)c1
target_entity: Serine/threonine-protein kinase Chk2 (Homo sapiens)
observed_value: -0.98
--
mol: CCCN(CCS(C)(=O)=O)Cc1ccc(-c2ccc3ncnc(Nc4ccc(OCc5cccc(F)c5)c(Cl)c4)c3c2)o1
target_entity: Serine/threonine-protein kinase Chk2 (Homo sapiens)
observed_value: 5.44

For the molecule shown here, CS(=O)(=O)CCNCc1ccc(-c2ccc3ncnc(Nc4ccc(OCc5ccccc5)c(C(F)(F)F)c4)c3c2)o1 , give the reported inhibition.
7.47

For the molecule shown here, Fc1ccc(-c2cc(-c3c[nH]nc3-c3ccccn3)ccn2)cc1 , give the reported inhibition.
4.88

For the molecule shown here, CCn1cc(-c2ccnc3[nH]ccc23)c(-c2cccc(NC(=O)Nc3ccc(OCc4ccccc4)cc3)c2)n1 , give the reported inhibition.
-0.17

###

target_entity: Tyrosine-protein kinase Fgr (Homo sapiens) (UniProt P09769);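 further: value reported as mean kinase inhibition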
Sequence (P09769 2-529 limits assumed): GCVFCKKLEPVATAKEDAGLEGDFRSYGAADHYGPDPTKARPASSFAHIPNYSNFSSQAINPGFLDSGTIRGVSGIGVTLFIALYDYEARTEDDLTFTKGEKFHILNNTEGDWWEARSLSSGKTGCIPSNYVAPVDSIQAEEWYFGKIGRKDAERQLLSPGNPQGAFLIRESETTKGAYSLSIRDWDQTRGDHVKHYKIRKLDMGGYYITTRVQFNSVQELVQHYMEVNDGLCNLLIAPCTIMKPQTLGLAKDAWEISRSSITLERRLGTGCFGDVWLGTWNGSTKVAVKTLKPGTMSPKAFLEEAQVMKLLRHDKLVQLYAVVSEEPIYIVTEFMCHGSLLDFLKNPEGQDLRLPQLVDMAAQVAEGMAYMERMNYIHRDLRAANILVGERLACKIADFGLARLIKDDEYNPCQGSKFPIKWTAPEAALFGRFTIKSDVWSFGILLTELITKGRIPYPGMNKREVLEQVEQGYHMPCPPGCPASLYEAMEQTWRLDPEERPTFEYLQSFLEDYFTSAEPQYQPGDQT
condition_info: at 1 µM
property_measured: inhibition (%)
Give your result in % as a bare value.

For the compound shown here, c1ccc(-c2nc3n(c2-c2ccc4c(c2)OCO4)CCC3)nc1 , give the reported inhibition.
0.17

For the compound shown here, Cc1cccc(Nc2ncc(-c3ccccc3)o2)c1 , give the reported inhibition.
9.59

For the compound shown here, CNC(=O)c1cccc(C#Cc2cncnc2Nc2ccc(OCc3cccc(F)c3)c(Cl)c2)c1 , give the reported inhibition.
6.13

For the compound shown here, CCc1nn2ncccc2c1-c1ccnc(NC2CC2)n1 , give the reported inhibition.
3.74

For the compound shown here, COc1ccc2[nH]c3c4[nH]c5ccc(OC)cc5c4c4c(c3c2c1)C(=O)NC4=O , give the reported inhibition.
28

For the compound shown here, CNC(=O)c1cc(-c2ccc(F)cc2)cc(-c2ccc(S(=O)(=O)N3CCCC3)cc2)c1N , give the reported inhibition.
2.93

For the compound shown here, Fc1cccc(COc2ccc(Nc3ncnc4sc(-c5ccco5)cc34)cc2Cl)c1 , give the reported inhibition.
8.35

For the compound shown here, COc1cccc(-n2ncc3c(N/N=C/c4ccc(F)cc4)ncnc32)c1 , give the reported inhibition.
29.7

For the compound shown here, Cc1cccc2c1NC(=O)/C2=N\Nc1ccc(S(N)(=O)=O)cc1 , give the reported inhibition.
4.37

For the compound shown here, CCn1c(-c2nonc2N)nc2c(C#CC(C)(C)O)nc(OC[C@H](N)c3ccccc3)cc21 , give the reported inhibition.
5.54

For the compound shown here, NS(=O)(=O)c1ccc(Nc2ncc(-c3ccccc3)o2)cc1 , give the reported inhibition.
10.1

Each recorded value in this set is attributed to ChEMBL document CHEMBL1961873.
